Biological target: human recombinant BACE1 (Homo sapiens (Human))
Sequence (P56817 46-501): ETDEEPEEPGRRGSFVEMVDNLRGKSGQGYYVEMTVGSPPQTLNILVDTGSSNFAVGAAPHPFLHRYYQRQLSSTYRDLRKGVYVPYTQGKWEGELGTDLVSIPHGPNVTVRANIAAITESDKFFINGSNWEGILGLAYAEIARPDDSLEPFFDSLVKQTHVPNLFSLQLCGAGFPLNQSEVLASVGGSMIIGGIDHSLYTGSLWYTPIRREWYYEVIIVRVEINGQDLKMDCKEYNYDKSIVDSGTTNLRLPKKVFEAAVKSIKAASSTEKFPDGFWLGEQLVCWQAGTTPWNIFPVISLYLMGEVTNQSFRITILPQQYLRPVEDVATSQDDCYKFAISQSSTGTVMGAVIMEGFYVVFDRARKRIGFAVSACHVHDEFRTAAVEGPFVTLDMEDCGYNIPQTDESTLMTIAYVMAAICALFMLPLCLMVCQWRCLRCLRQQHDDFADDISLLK
Experiment: In vitro enzymatic BACE1 FRET assay
Assay type: biochemical
Conditions: read-out: IC50 IP (μM) BACE1 enzyme
assay_endpoint: IC50 (µM)

[I] C#CCOc1cnc2c(Nc3cc(F)c(F)c([C@@]4(C)N=C(N)S[C@@]5(S(C)(=O)=O)C[C@H]54)c3)nccc2n1
[II] NC1=N[C@](CF)(c2cc(NC(=O)c3ccc(Cl)cn3)ccc2F)[C@@H]2C[C@]2(/C=C/CO)S1
Exam item: Lowest IC50? choose I or II Label of pick, please.
Marked response: I
(I: 0.000443 µM, II: 0.00373 µM)

[I] COC[C@]12C[C@H]1[C@@](C)(c1cc(Nc3nccc4cc(C#N)cnc34)cnc1F)N=C(N)S2
[II] C[C@]1(c2cc(NC(=O)c3ccc(Cl)cn3)cc(F)c2F)N=C(N)S[C@@]2(S(C)(=O)=O)C[C@H]21
[III] NC1=N[C@](CF)(c2cc(NC(=O)c3ccc(Cl)cn3)ccc2F)[C@@H]2C[C@]2(/C=C/C(=O)N2CC(F)(F)C2)S1
Exam item: Sort (3 molecules) by IC50: min first. Write the labels, ordered according to the request.
Marked response: III, II, I
(III: 0.000429 µM, II: 0.000719 µM, I: 0.0113 µM)

[A] C#CCOc1cnc2c(Nc3cc(F)c(F)c([C@@]4(C)N=C(N)S[C@@]5(C(F)F)C[C@@H]45)c3)ncnc2c1
[B] C#CCOc1cnc2c(Nc3ccc(F)c([C@@]4(CF)N=C(N)S[C@@]5(c6c[nH]nn6)C[C@@H]45)c3)nccc2n1
[C] CN(C)C(=O)[C@]12C[C@H]1[C@@](CF)(c1cc(NC(=O)c3ccc(Cl)cn3)ccc1F)N=C(N)S2
[D] COC(=O)c1cc(NC(=O)c2ccc(Cl)cn2)cc([C@@]2(C)N=C(N)S[C@@]3(C(=O)OC)C[C@H]32)c1F
[E] C[C@]1(c2cc(Nc3ncc(F)c4cc(OCc5ncco5)cnc34)cc(F)c2F)N=C(N)S[C@@]2(C(F)F)C[C@@H]12
Exam item: Rank the 5 molecules: largest IC50 first, smallest last. Write the labels, ordered according to the request.
Marked response: D, E, A, B, C
(D: 0.198 µM, E: 0.00245 µM, A: 0.00105 µM, B: 0.000507 µM, C: 0.000338 µM)

[I] COC[C@]12C[C@H]1[C@@](C)(c1cc(NC(=O)c3cnc(OCC(C)(F)F)cn3)cc(F)c1F)N=C(N)S2
[II] C[C@]1(c2cc(NC(=O)c3cnc(OCC(F)(F)F)cn3)ccc2F)N=C(N)S[C@@]2(C(=O)NCC(F)(F)F)C[C@H]21
[III] C#CCOc1cnc(C(=O)Nc2cc(F)c(F)c([C@@]3(C)N=C(N)S[C@@]4(C(=O)N5CCOCC5)C[C@H]43)c2)cn1
Exam item: Sort (3 molecules) by IC50: min first. Write the labels, ordered according to the request.
Marked response: III, II, I
